Data provenance: PubChem BioAssay (NCATS)

Assay: Quantitative High-Throughput drug screen in 47 multiple myeloma cell lines against the NCATS MIPE library collection: OPM2_DSMZ cell viability assay (AID 1919872); note: nearly all actives have a fitted effect of over 30% in size
Settings: OPM2 myeloma viability, CellTiter-Glo ATP luminescence, 48 h; series mostly up to 45.8 µM
Results filed as inconclusive are left out. Calls of active or inactive are those of the source. Calls come from the whole dose curve; as a rule, active = well fitted cell-killing curve with a large enough effect; inconclusive = small, poorly fitted or top-dose-only effect, or effect the other way; inactive = no such curve, though single readings can be large or run the other way.
Outcome (select one): active, inactive

[in] Check the results log: what was the call for CCN(CCO)CCCC(C)Nc1ccnc2cc(Cl)ccc12 (configuration not stated) ?
[out] inactive

[in] I'd appreciate the recorded outcome for CCC(C)(Oc1ccc(C2(c3ccc(OC(C)(CC)C(=O)O)cc3)CCCCC2)cc1)C(=O)O (configuration not stated) from this test.
[out] inactive

[in] What call does the record list for CCOc1cc(CC(=O)N[C@@H](CC(C)C)c2ccccc2N2CCCCC2)ccc1C(=O)O ?
[out] inactive

[in] Called result for Cc1cc(O)c2c(c1)C(=O)c1cc(O)cc(O)c1C2=O
[out] inactive

[in] I would be grateful if you could indicate the recorded call for NNc1nncc2ccccc12 .
[out] inactive

[in] Could you check what this test reported for O=C1CCc2ccc(OCCCCN3CCN(c4cccc(Cl)c4Cl)CC3)cc2N1 ?
[out] inactive

[in] Assay result, entry COc1c2occc2cc2ccc(=O)oc12 — outcome?
[out] inactive

[in] Could you please tell me the result logged for O=C(CCc1ccc(O)cc1)c1c(O)cc(O)cc1O in this assay?
[out] active

[in] Record request — test call for CN(c1nccc(=O)[nH]1)C1CCN(c2nc3ccccc3n2Cc2ccc(F)cc2)CC1
[out] inactive

[in] Could you kindly confirm the outcome this assay logged for NCCCCNCCCN ?
[out] active

[in] Would you mind telling me which call this test gave Nc1ncn([C@H]2C[C@H](O)[C@@H](CO)O2)c(=O)n1 ?
[out] inactive

[in] Outcome? CN1CCC(=C2c3ccccc3CCc3sccc32)CC1
[out] inactive

###

System: AS120
Experiment: qHTS profiling for inhibitors of Plasmodium falciparum proliferation (AID 504749); note: nearly all actives have a fitted effect of over 60% in size
Details: P. falciparum in erythrocytes, SYBR Green DNA, 72 h; series mostly up to 28.7 µM
Procedure: NIH National Institute of Allergy and Infectious Diseases [NIAID] NIH Chemical Genomics Center [NCGC] […] Because mature erythrocytes lack DNA, only Plasmodium-derived DNA is detected. NCGC Assay Protocol Summary: The SYBR Green viability assay was adapted from a method described previously (Plouffe et al., 2008). […] The following morning, fluorescence intensity at 485(14) nm excitation and 535(25) nm emission wavelengths was measured on an EnVision (Perkin Elmer) plate reader. […]
Results filed as inconclusive are left out. Active and inactive are the calls of the source. Calls come from the whole dose curve; as a rule, active = well fitted inhibition curve with a large enough effect; inconclusive = small, poorly fitted or top-dose-only effect; inactive = flat fitted curve, though single readings scatter. Peptide text beside a SMILES is read from it.
Parameter call: string, one of active, inactive

[in] Could you please tell me the result logged for O=C(NC(Cc1cc(=O)[nH]c2ccccc12)C(=O)O)c1ccc(Cl)cc1 (stereo not drawn) in this assay?
[out] inactive

[in] Could you check what this test reported for Cc1cc2c(s1)Nc1ccccc1N=C2N1CCN(C)CC1 ?
[out] inactive

[in] For C[C@H](Cn1cnc2c(N)ncnc21)OCP(=O)(O)O , what call appears in the results of this test?
[out] inactive

[in] Assay outcome for O=C(O)c1cn(-c2ccc(F)cc2)c2cc(N3CCNCC3)c(F)cc2c1=O : what was it?
[out] inactive

[in] Returns: the outcome recorded for CCCc1cc(=O)[nH]c(=S)[nH]1 in this assay.
[out] inactive

[in] // outcome(item) with item = C[C@]12CCC(=O)C=C1CC[C@@H]1[C@H]2[C@@H](O)C[C@@]2(C)[C@H]1CC[C@]2(O)C(=O)CO
[out] inactive

[in] State the result this test recorded for O=C(O)c1cc(=O)c2c(OCC(O)COc3cccc4oc(C(=O)O)cc(=O)c34)cccc2o1 .
[out] inactive

[in] Status in this test for CCN(CCO)CCCC(C)Nc1ccnc2cc(Cl)ccc12 (stereo not drawn) ?
[out] inactive

[in] Any idea what this test logged for O=C(O)CCNC(=O)c1ccc(N=Nc2ccc(O)c(C(=O)O)c2)cc1 ?
[out] inactive

[in] Could you please tell me the result logged for Cc1c(C(=O)NN2CCCCC2)nn(-c2ccc(Cl)cc2Cl)c1-c1ccc(Cl)cc1 in this assay?
[out] active

[in] Hello, I am checking results. What call was entered for CN(C)C(=O)COC(=O)Cc1ccc(OC(=O)c2ccc(N=C(N)N)cc2)cc1 ?
[out] inactive

[in] State the result this test recorded for Clc1ccc(C(Cn2ccnc2)OCc2ccsc2Cl)c(Cl)c1 (stereo not drawn) .
[out] active

[in] Hey, what did the test say about CC(C)(S)[C@@H](N)C(=O)O ?
[out] inactive

[in] Record request — test call for COC(=O)C1=C(C)NC(C)=C(C(=O)OCCCN2CCC(c3ccccc3)(c3ccccc3)CC2)C1c1cccc([N+](=O)[O-])c1 (stereo not drawn)
[out] active

[in] Hi, sorry to bother you, what did the test record for CCN(CC)CCOc1ccc(Cc2ccccc2)cc1 ?
[out] inactive

[in] I'd appreciate the recorded outcome for C[Se]CCC(N)C(=O)O (stereo not drawn) from this test.
[out] inactive

[in] Which result was noted for this molecule in the test: CC(S)C(=O)NCC(=O)O (stereo not drawn)
[out] inactive

[in] Could you kindly confirm the outcome this assay logged for Nc1nc(Cl)nc2c1ncn2[C@H]1C[C@H](O)[C@@H](CO)O1 ?
[out] inactive

[in] Which outcome did this test record for the molecule COc1ccc2cc([C@H](C)C(=O)O)ccc2c1 ?
[out] inactive

[in] For Cc1ccc(C)c(OCCCC(C)(C)C(=O)O)c1 , which call appears in the assay record?
[out] inactive

[in] Record lookup: outcome of this test for CNC[C@H](O)c1ccc(O)c(O)c1 ?
[out] inactive

[in] Any idea what this test logged for Cc1cc(C2CCCCC2)n(O)c(=O)c1 ?
[out] active

[in] For this molecule, state the assay outcome: COC(=O)[C@H](Cc1ccccc1)NC(=O)[C@@H](N)CC(=O)O (H-Asp-Phe-OMe)
[out] inactive
